Recorded measurements of Plant response rating, Foxtail, Giant, one per entry
Test system: giant foxtail (Setaria faberii)
protocol text: Test C preemergence
Format: in vivo
conditions: Rate 125 g/ha; scale 0 to 100, 0 no effect, 100 complete control
Number only, please.

Worked cases, Plant response rating, Foxtail, Giant given:
compound | assayed system | endpoint | test value
COC(=O)c1cccc(N2CCC(n3ccc(C(C)(C)C)n3)C2=O)c1 (centres unmarked) [Compound 73] | giant foxtail (Setaria faberii) | Plant response rating, Foxtail, Giant | 100
CCCC(C)c1ccn(C2OCN(c3cccc(OC(F)(F)F)c3)C2=O)n1 (centres unmarked) [Compound 91] | giant foxtail (Setaria faberii) | Plant response rating, Foxtail, Giant | 30
CCC(CC)c1ccn(C2CCN(c3ccc(Cl)c(OC)c3)C2=O)n1 (centres unmarked) [Compound 118] | giant foxtail (Setaria faberii) | Plant response rating, Foxtail, Giant | 100
CCC(CC)c1ccn(C2CCN(c3ccc(C)c(OC)c3)C2=O)n1 (centres unmarked) [Compound 81] | giant foxtail (Setaria faberii) | Plant response rating, Foxtail, Giant | 100

Moving on to another compound below.
Plant response rating, Foxtail, Giant for giant foxtail (Setaria faberii) with input CC(C)(C)c1ccn(C2CCN(c3cccc(I)c3)C2=O)n1 (centres unmarked) [Compound 88] equals 100
